system: SK-OV-3 ovarian; experiment: NCI-60 one-dose screen, 48 h; settings: 10 µM unless noted
The panel holds about 83,000 compounds, 20% with a hit somewhere; the sample as a whole holds those more often. Active and inactive are the calls of the source. The calls were made as follows: active = growth percent below 10; inactive = the rest.
Valid outcomes are listed here; reply with one: YES = active, NO = inactive

[Q] Short answer needed: outcome of this test for CCCCN1CCCC[C@@H]1C(=O)N[C@H](C(=O)N(C)[C@H](CCc1nc(C(=O)N[C@@H](Cc2ccccc2)C[C@H](C)C(=O)OC)cs1)C(C)C)[C@@H](C)CC ?
[A] NO

[Q] Please indicate how the test categorized O=C1CC2(CC3(Cl)C(Cl)=C(Cl)C2(Cl)C3(Cl)Cl)C(=O)O1 (stereo not given) .
[A] NO

[Q] Give the logged outcome of this assay for the following compound: COc1ccc(NC([Se])=NC23CC4CC(CC(C4)C2)C3)cc1
[A] YES

[Q] Write down the call the test reported for this compound. Item: COc1ccc2c(c1)c(-c1nc(-c3c[nH]c4ncccc34)cs1)cn2CCCCN1CCCCC1
[A] YES

[Q] Recorded test call requested for O=NNc1ccccn1
[A] NO

[Q] Tell me the assay call for O=C(O)c1ccc([S-])cc1.[Au+].c1ccc(CN2[CH-]N(Cc3ccccc3)C(c3ccccc3)=C2c2ccccc2)cc1 please.
[A] YES

[Q] Tell me the recorded outcome of this test for O=[N+]([O-])c1ccc(OP(=O)(CCl)N(CCCl)CCCl)cc1 (stereo not given) .
[A] NO

[Q] Record lookup: outcome of this test for [Cl][Hg][n]1c(-c2ccco2)nc2ccccc21 ?
[A] NO

[Q] How was Cc1ccc(C(Cc2ccccc2)NCCO)cc1 (stereo not given) classified in this test?
[A] NO

[Q] Hi, do you know how CN1C(=O)C(=Cc2cn(CCCCCCn3c4ccccc4c(=O)c4ccccc43)c3ccccc23)C(=O)N(C)C1=O came out in this test?
[A] NO
